Tested Target: T1, HLA-A*0201 molecule expressed on human T2 cells (human)
T1 construct: also called HLA-A2
Assay Explanation: T2 cells (HLA-A*0201), peptide at 100 µM, anti-HLA-A2 flow cytometry
Endpoint: mean relative fluorescence intensity (HIV peptide = 100)

Q: Return reported mean relative fluorescence intensity (HIV peptide = 100); argument: FMPGLLFGA [TNFRSF13C-B33]
Result: 99.6 % of HIV pol 589-597 at 100 µM

Q: Return reported mean relative fluorescence intensity (HIV peptide = 100); argument: LMIPAGIYA [MS4A1-H3]
Result: 92.6 % of HIV pol 589-597 at 100 µM

Q: Return reported mean relative fluorescence intensity (HIV peptide = 100); argument: ILPGLLFGL [TNFRSF13C-B31]
Result: 104 % of HIV pol 589-597 at 100 µM

Q: Return reported mean relative fluorescence intensity (HIV peptide = 100); argument: ILIPAGIYL [MS4A1-B3]
Result: 88.8 % of HIV pol 589-597 at 100 µM
